Provenance of the data: patent US20190127480A1

System tested: T1, Soluble heterodimeric CD3 protein (hCD3-epsilon/hCD3-delta) with either a human Fc tag (hFcΔAdp/hFc) or a … (human, UniProt P07766 23-126; P04234 22-105)
T1 construct: also called hCD3ε/δ; not shown: Fc tag: human (hFcΔAdp/hFc)
T1 sequence (P07766 23-126 limits assumed, stated change not applied, chain 1 of 2): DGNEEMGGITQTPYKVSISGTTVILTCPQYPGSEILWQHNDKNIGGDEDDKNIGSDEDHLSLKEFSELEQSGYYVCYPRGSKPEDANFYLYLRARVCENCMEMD
T1 sequence (P04234 22-105 limits assumed, stated change not applied, chain 2 of 2): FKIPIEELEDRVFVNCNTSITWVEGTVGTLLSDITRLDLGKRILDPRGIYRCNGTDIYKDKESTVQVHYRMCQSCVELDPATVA
Test method notes: SPR Biacore 25C antigen-capture
This section presents binders with their documented kon values.
Test readout: kon

H1M2712N (antibody, mouse IgG1, V domains shown, H1M: mouse IgG1 Fc; divalent) VH: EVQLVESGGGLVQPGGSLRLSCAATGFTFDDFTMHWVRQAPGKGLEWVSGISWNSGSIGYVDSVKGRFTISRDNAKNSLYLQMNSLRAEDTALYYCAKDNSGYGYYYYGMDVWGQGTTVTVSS VL: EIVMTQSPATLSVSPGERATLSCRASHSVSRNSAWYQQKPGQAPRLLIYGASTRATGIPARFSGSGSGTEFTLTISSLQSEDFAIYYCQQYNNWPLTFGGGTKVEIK
47500 M⁻¹ s⁻¹
H1H5780P (antibody, human IgG1, V domains shown, H1H: human IgG1 Fc; divalent) VH: EVQLVESGGGLVQPGRSLRLSCAASGFTFDDYAMHWVRQAPGKGLEWVSGISWNGGSKDYADSVKGRFTISRDNTRNSLSLQMNSLRIEDTALYYCAKDKSGYGSFYYGLDVWGQGTTVTVSS VL: EIVLTQSPGTLSLSPGDRATLSCRASQSIRSIYLAWYQQKPGQAPRLLIHGASTRATGIPDRFSGSGSGTDFTLTISRLEPEDFAVYYCQQRVSSPYTFGQGTKLEIK
478000 M⁻¹ s⁻¹
H2M2690N (antibody, mouse IgG2, V domains shown, H2M: mouse IgG2 Fc, human variable regions; divalent) VH: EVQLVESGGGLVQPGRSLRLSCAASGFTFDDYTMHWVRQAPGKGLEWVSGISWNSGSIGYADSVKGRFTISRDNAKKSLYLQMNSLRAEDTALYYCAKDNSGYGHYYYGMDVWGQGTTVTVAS VL: EIVMTQSPATLSVSPGERATLSCRASQSVSSNLAWYQQKPGQAPRLLIYGASTRATGIPARFSGSGSGTEFTLTISSLQSEDFAVYYCQHYINWPLTFGGGTKVEIK
75100 M⁻¹ s⁻¹
H2M2862N (antibody, mouse IgG2, V domains shown, H2M: mouse IgG2 Fc, human variable regions; divalent) VH: QVQLVESGGGVVQPGRSLRLSCAASGFTFRSYGMHWVRQAPGKGLEWVAMIYYDGNNKKYADSVRGRFTISRDNSKNTLYLQMNSLRVEDTAVYFCARGPGYNWLDPWGQGTLVTVSS VL: EIVMTQSPATLSVSPGERATLSCRASQSVSRNLAWYQQKPGQAPRLLIYGASTRATDIPARFSGSGSGTEFILNISSLQSEDFALYYCQQYSNWPLTFGGGTEVEIK
591000 M⁻¹ s⁻¹
H2M2708N (antibody, mouse IgG2, V domains shown, H2M: mouse IgG2 Fc, human variable regions; divalent) VH: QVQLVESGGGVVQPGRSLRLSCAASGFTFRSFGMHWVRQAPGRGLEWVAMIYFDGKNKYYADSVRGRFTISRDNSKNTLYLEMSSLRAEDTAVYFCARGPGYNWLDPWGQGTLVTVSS VL: EIVMTQSPATLSVSPGERVTLSCRASQSISRNLAWYQQKPGQAPRLLIYGASTRATGVPARFSGSGSGTEFTLTISSLQSEDFAVFHCQQYNNRPLTFGGGTEVEIK
1.73e+06 M⁻¹ s⁻¹
H1H5757B (antibody, human IgG1, V domains shown, H1H: human IgG1 Fc; divalent) VH: EVQLVESGGGVVQPGRSLRLSCAASGFTFSSYGMHWVRQAPGKGLEWVTVILHDGSNRYSADSVKGRFTISRDNSKNTLYLQMNILRVEDTAVYYCTKGAMVRGVPYNHYYGMDVWGQGTTVTVSS VL: DIQMTQSPSSLSASVGDRVTITCRASQGIRNDLGWYQQKPGKAPKRLIYAASILQSGVPSRFSGSGSGTEFTLTISSLQPEDFATYYCLQHNSYPYTFGQGTKLEIKR
180000 M⁻¹ s⁻¹
H2M2778N (antibody, mouse IgG2, V domains shown, H2M: mouse IgG2 Fc, human variable regions; divalent) VH: EVQLVESGGGLVQPGRSLRLSCAASGFTFDDYSMHWVRQAPGKGLEWVSGISWNSRSIDYADSVKGRFTISRDNAKNSLYLQMNSLRAEDTALYYCVKDNSGYGRYYYYGMDVWGQGTTVSVSS VL: KIVMTQSPATLSVSPGERATLSCRASQSVSGNLAWYQQKPGQAPRLLIYGASTRATSIPARFSGSGSGTEFTLTISSLQSEDFAVYFCQHYYNWPLTFGGGTKVEIR
150000 M⁻¹ s⁻¹
H1H5801B (antibody, human IgG1, V domains shown, H1H: human IgG1 Fc; divalent) VH: QVQLVQSGGGVVQPGGSLRLSCAASGFTFDDYAMHWVRQAPGKGLEWVSLISGDGGSTYYADSVKGRFTISRDNSKNSLYLQMNSLRTEDTALYYCAKDDSSSSWYYYYYGMDVWGRGTTVTVSS VL: DIQMTQSPSSLSASVGDRVTITCRASQRISSYLNWYQQKPGKAPKVLISVASSLQSGVPSRFSGSGSGTDFTLTISSLQPEDFASYYCQQSYNTPLTFGGGTKVEIKR
331000 M⁻¹ s⁻¹
H2M3563N (antibody, mouse IgG2, V domains shown, H2M: mouse IgG2 Fc, human variable regions; divalent) VH: EVHLVESGGGLVQPGRSLRLSCAASGFTFDDYTMHWVRQAPGKGLEWVSDISWNSGSIGYADSVKGRFTVSRDNAKNSLYLQMNSLRGEDTALYYCAKDMSGYGHYGKYGMDVWGQGTTVTVSS VL: DIQMTQSPSSLSASVGDRVTITCRASQSIRSYLNWYQQKPGKVPKLLIYAASSLQSGVPSRFSGSGSGTDFTLTINSLQPDDFATYYCQQTYSNPPITFGQGTRLEIK
616000 M⁻¹ s⁻¹
H1H5786B (antibody, human IgG1, V domains shown, H1H: human IgG1 Fc; divalent) VH: QVQLVESGAEVKKPGASVKVSCKTSGYTFTGYYMHWIRQAPGQGLEWMGWINPKSGGTNYAQKFQGRVTMTRDTSISTAYMELSRLRSDDMAVYYCARMGDGAVFDFWGQGTLVTVSS VL: AIQMTQSPSSLSASVGDRVTITCRASQRISSFLNWYQQKPGKAPKLLIYTASNLQNGVPSRFSGSGSGTDFTLTISSLQPEDFATYYCQQSYRTPLTFGGGTKVEIKR
3e+06 M⁻¹ s⁻¹
